system: A498 renal; assay: NCI tumour cell line growth inhibition, 48 h
assay-metric: TGI

compound: NC(=O)NC(=O)c1cccc(C(=O)NC(N)=O)n1
TGI: > 100 µM

Just so you know, measured TGI for O=C1OC(/C=C/c2ccccc2)C(=O)C1=O (stereo not given) came out at > 100 µM

Just so you know, measured TGI for `Cc1c(OCc2cccc3ccccc23)ccc2c(=O)cc(S)oc12` came out at > 100 µM

Just so you know, measured TGI for `CO[C@]12C=C/C(=C(/C(=O)OCc3cccnc3)C(=O)CCCCCCCC[C@]3(OC)C=C/C(=C(/C(=O)OCc4cccnc4)C(=O)CCCCCCCC1)O3)O2` came out at 1.72 µM

Just so you know, measured TGI for `O=C1/C=C/[C@@H](O)[C@@H]2C[C@@H](O)C[C@H]2/C=C/CCCCO1` came out at 1.92 µM

Just so you know, measured TGI for O=C(c1ccccc1)C(c1ccccc1)C1(O)C(=O)Nc2ccc(Br)cc21 (stereo not given) came out at > 100 µM
